- System: T-47D
- method: SRB 48 h growth assay, Breast T-47D
- Assay type: cell-based, human
quantityMeasured: Log10 TGI50

[
  {
    "smilesData": "C#Cc1ccc(-n2c(/C=C/c3ccc(O)cc3)nc3ncccc3c2=O)cc1",
    "assaySystem": "T-47D",
    "inequalitySymbol": ">",
    "observedResult": "−4.00"
  },
  {
    "smilesData": "C#Cc1ccc(-n2c(/C=C/c3ccc(C(F)(F)F)cc3)nc3ncccc3c2=O)cc1",
    "assaySystem": "T-47D",
    "inequalitySymbol": "=",
    "observedResult": "−5.30"
  },
  {
    "smilesData": "C#Cc1ccc(-n2c(/C=C/c3ccc4ccccc4n3)nc3ncccc3c2=O)cc1",
    "assaySystem": "T-47D",
    "inequalitySymbol": "=",
    "observedResult": "−6.05"
  },
  {
    "smilesData": "C#Cc1ccc(-n2c(/C=C/c3ccc4ccccc4c3)nc3ncccc3c2=O)cc1",
    "assaySystem": "T-47D",
    "inequalitySymbol": ">",
    "observedResult": "−4.00"
  },
  {
    "smilesData": "C#Cc1ccc(-n2c(/C=C/c3cc(OC)c(OC)c(OC)c3)nc3ncccc3c2=O)cc1",
    "assaySystem": "T-47D",
    "inequalitySymbol": ">",
    "observedResult": "−4.00"
  }
]

Measured values drawn from patent US9783537B2 for this set.
